# measurement_description: Activity of Beta-lactamase GES-1 E104, G170 mutant
property_measured: kcat (s⁻¹)
Write it as a number; the unit s⁻¹ goes unstated.

Recorded results for 3 compounds are shown here.
C[C@@H](O)[C@H]1C(=O)N2C(C(=O)O)=C(SCCNC=N)C[C@H]12 [IMIPENEM ANHYDROUS]	0.006
CO/N=C(\C(=O)N[C@@H]1C(=O)N2C(C(=O)O)=C(COC(C)=O)CS[C@H]12)c1csc(N)n1 [CEFOTAXIME]	56.8
CC1(C)S[C@@H]2[C@H](NC(=O)Cc3ccccc3)C(=O)N2[C@H]1C(=O)O	30.5

Next compound, kcat to be filled in.
Please look at this compound and report its kcat: CC(C)(O/N=C(\C(=O)N[C@@H]1C(=O)N2C(C(=O)[O-])=C(C[n+]3ccccc3)CS[C@H]12)c1csc(N)n1)C(=O)O [CEFTAZIDIME]
10.5

// provenance: ChEMBL document CHEMBL1687781
